// data source = patent US20250197374A1

molecular target: WEE1 (Homo sapiens, UniProt P30291+Q96SW2); construct: C-terminal ePL-tagged (DiscoverX, Fremont, CA) full-length WEE1 expression construct; expressed in transfected cells; host or cells: LentiX-HEK293T (Invitrogen), lentivirally transduced; the cells also over-express GSPT1-GN; assay: WEE1-ePL degradation assay (293T-LentiX, InCELL Hunter luminescence, 4 hr); type: cell-based; details: lower limit of fit, % of DMSO control signal remaining; 4 hr
Sequence (P30291 whole entry): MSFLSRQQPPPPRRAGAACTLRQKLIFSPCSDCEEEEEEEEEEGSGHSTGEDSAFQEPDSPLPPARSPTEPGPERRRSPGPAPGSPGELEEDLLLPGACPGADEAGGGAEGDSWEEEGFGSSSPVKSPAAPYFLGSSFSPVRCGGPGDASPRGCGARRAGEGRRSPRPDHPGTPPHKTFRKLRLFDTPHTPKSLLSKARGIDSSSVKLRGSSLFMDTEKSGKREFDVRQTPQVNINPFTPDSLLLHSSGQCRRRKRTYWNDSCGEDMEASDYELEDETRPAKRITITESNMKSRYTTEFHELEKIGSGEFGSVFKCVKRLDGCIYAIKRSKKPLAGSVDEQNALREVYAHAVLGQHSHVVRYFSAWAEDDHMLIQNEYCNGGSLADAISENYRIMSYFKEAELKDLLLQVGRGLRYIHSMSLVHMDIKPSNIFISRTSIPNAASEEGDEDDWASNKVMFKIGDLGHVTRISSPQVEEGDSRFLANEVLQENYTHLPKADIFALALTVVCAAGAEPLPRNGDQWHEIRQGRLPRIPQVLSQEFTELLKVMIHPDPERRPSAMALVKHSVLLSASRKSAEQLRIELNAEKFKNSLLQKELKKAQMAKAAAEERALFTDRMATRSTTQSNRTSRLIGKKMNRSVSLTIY
Sequence (Q96SW2 whole entry): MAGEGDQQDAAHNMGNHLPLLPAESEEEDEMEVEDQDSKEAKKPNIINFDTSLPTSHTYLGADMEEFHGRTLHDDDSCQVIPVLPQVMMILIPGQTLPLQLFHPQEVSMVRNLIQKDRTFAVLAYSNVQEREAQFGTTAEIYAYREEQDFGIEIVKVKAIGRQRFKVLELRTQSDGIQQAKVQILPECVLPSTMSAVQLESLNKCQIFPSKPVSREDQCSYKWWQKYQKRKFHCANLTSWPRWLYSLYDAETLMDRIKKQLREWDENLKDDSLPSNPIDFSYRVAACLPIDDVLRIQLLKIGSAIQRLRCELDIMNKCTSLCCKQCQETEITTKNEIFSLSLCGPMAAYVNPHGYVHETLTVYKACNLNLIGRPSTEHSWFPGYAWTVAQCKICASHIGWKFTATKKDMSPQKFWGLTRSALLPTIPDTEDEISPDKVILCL
Sequence (Q16531 whole entry partner): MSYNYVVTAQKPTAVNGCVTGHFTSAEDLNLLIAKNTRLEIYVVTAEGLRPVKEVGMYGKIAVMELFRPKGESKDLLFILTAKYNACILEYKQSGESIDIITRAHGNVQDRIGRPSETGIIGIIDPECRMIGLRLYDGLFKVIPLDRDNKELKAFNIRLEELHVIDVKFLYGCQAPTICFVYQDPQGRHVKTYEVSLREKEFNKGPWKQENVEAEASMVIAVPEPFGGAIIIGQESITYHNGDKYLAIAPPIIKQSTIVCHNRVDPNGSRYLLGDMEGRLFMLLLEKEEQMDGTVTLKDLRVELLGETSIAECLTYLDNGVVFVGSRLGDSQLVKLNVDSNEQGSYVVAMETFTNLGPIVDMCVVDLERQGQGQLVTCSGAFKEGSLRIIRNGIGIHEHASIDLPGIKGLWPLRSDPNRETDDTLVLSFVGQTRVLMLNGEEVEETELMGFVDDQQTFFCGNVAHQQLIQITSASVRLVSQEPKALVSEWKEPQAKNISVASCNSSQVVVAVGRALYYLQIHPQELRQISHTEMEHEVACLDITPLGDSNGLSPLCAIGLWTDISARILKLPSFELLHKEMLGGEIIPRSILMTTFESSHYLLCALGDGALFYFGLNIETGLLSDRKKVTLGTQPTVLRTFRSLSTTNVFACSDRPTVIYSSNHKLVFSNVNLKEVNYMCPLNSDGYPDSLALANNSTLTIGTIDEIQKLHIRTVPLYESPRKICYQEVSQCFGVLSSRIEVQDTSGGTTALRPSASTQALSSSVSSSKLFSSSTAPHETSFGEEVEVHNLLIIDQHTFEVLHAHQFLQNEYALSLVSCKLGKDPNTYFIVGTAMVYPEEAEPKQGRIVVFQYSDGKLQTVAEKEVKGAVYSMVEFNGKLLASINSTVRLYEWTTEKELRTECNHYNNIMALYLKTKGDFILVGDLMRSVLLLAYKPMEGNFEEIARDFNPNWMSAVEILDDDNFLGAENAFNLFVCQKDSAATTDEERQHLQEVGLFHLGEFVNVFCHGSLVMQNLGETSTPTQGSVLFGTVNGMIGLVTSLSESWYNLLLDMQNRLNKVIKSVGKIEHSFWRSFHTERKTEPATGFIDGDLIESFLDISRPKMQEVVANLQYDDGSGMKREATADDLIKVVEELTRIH
metric: 293T-LentiX WEE1-ePL Degradation 4 hr YMin (%)

- compound: "COC[C@@H]1CN(Cc2cc(F)c3nc(C4CN(C(C)=O)C4)ncc3c2)C[C@H]1Oc1ccc2c(c1)CN([C@H]1CCC(=O)NC1=O)C2=O [Example 45]"
  endpoint_unit: "%"
  quantitative_result: 31.5
- compound: "COC[C@@H]1CN(Cc2ccc3nc(N4CCN(C(C)=O)C5(COC5)C4)ncc3c2)C[C@H]1Oc1ccc2c(c1)CN([C@H]1CCC(=O)NC1=O)C2=O [Example 95]"
  endpoint_unit: "%"
  quantitative_result: 20.9
- compound: "Cc1cc([C@@H]2CN(Cc3cc(F)c4nc(C5CCOCC5)ccc4c3)C[C@H]2Oc2ccc3c(c2)CN([C@H]2CCC(=O)NC2=O)C3=O)cc(C)n1 (relative stereo) [Example 127]"
  endpoint_unit: "%"
  quantitative_result: 20.2

###

biological target: WEE1 (Homo sapiens, UniProt P30291+Q96SW2); construct: C-terminal ePL-tagged (DiscoverX, Fremont, CA) full-length WEE1 expression construct; expressed in transfected cells; host or cells: LentiX-HEK293T (Invitrogen), lentivirally transduced; the cells also over-express GSPT1-GN; assay: WEE1-ePL degradation assay (293T-LentiX, InCELL Hunter luminescence, 4 hr); assay type: cell-based; settings: lower limit of fit, % of DMSO control signal remaining; 4 hr
Listed below: 293T-LentiX WEE1-ePL Degradation 4 hr YMin (%) values for each entry.
metric: 293T-LentiX WEE1-ePL Degradation 4 hr YMin (%)

- molecule: "COC[C@@H]1CN(Cc2cc(F)c3nc(N4CCN(C5COC5)CC4)ccc3c2)C[C@H]1Oc1ccc2c(c1)CN([C@H]1CCC(=O)NC1=O)C2=O"
  endpoint_unit: "%"
  quantitative_result: 19.9
- molecule: "COC[C@@H]1CN(Cc2cc(F)c3nc(CC(C)(C)O)ncc3c2)C[C@H]1Oc1ccc2c(c1)CN([C@H]1CCC(=O)NC1=O)C2=O"
  endpoint_unit: "%"
  quantitative_result: 19.5
- molecule: "COC[C@@H]1CN(Cc2ncc3cc(N4CCOCC4)ccc3c2F)C[C@H]1Oc1ccc2c(c1)CN([C@H]1CCC(=O)NC1=O)C2=O"
  endpoint_unit: "%"
  quantitative_result: 25.3
- molecule: "COC[C@@H]1CN(Cc2cc(F)c3cc(N4CCOCC4)cnc3c2)C[C@H]1Oc1ccc2c(c1)CN([C@H]1CCC(=O)NC1=O)C2=O"
  endpoint_unit: "%"
  quantitative_result: 32.3
- molecule: "COC[C@@H]1CN(Cc2cc(F)c3nc(N4CCN(CC(F)(F)F)CC4)ccc3c2)C[C@H]1Oc1ccc2c(c1)CN([C@H]1CCC(=O)NC1=O)C2=O"
  endpoint_unit: "%"
  quantitative_result: 27.8
- molecule: "O=C1CC[C@H](N2Cc3cc(O[C@@H]4CN(Cc5cc(F)c6nc(C7CCOCC7)ccc6c5)C[C@H]4c4ccncc4)ccc3C2=O)C(=O)N1 (relative stereo)"
  endpoint_unit: "%"
  quantitative_result: 92.4
